System: SK-MEL-28 melanoma
procedure-summary: NCI tumour cell line growth inhibition, 48 h
measured-metric: TGI

COc1nc2c(c(O)c(C)c(=O)n2OC2OC(COC(C)=O)C(OC(C)=O)C(OC(C)=O)C2OC(C)=O)c(=O)n1C (stereo not given)
> 100 µM
NC(N)=N/N=C/c1c(-c2ccc(Cl)c([N+](=O)[O-])c2)nc2n1CCS2
35.5 µM
CCc1cccc(CC)c1/C=C/c1cncc(C(=O)NC)c1
> 25 µM
CC(c1ccccc1)N1CC(C)(c2ccccc2)N(O)C(c2ccccc2)C1C (stereo not given)
21.9 µM
O=C1CC2(CCNCC2)C(=O)N1N1CCOCC1
> 100 µM

Exercise: Look up TGI for this molecule: C[C@@]12CCCC(=O)N1[C@@H](CO)C(c1ccccc1)O2 (stereo not given in full)
Key: > 100 µM

Exercise: Sample CC(C)CCCC(C)[C@H]1CC[C@H]2N=C(Nc3ccccc3)CCC[C@]12C (stereo not given in full) — what was its TGI?
Key: 3.89 µM

====

Tested on: COLO 205 colon
procedure-summary: NCI tumour cell line growth inhibition, 48 h
measured-metric: TGI (µM)
Output spec: scalar in µM, unitless text.

Answered examples (2):
CC(=O)OCCC(O[Si](c1ccccc1)(c1ccccc1)C(C)(C)C)C(C)(C)O (stereo not given)
30.3
COc1cc([C@H]2c3[nH]c4ccccc4c3C[C@H]3COC(=O)N32)cc(OC)c1O
37.5

Exercise: // lookup TGI for CC1(C)C2CCC13C(=O)C1OC3(C2)C2C(=O)c3c(O)cccc3C(=O)C12 (stereo not given)
Key: 16.1

====

System: KM12 colon
procedure-summary: NCI tumour cell line growth inhibition, 48 h
measured-metric: TGI

Look over these answered cases.
CC(C)(C)c1ccc(-c2nnc(-c3cc(C#N)cc(-c4nnc(-c5ccc(C(C)(C)C)cc5)o4)c3)o2)cc1
> 100 µM
COc1ccc(-c2c3ccccc3c(-c3ccc(OCCCCCBr)cc3)c3ccccc23)cc1
> 100 µM
Fc1c[c-]c(-c2ccccn2)c(F)c1.[CH3-].[Pt+2].c1ccc(P(C[PH+](c2ccccc2)c2ccccc2)c2ccccc2)cc1
1.25 µM
O=S(=O)(O)C1CCC(O)C2[N-]CCCC21.O=S(=O)(O)C1CCC(O)C2[N-]CCCC21.[Zn+2] (stereo not drawn)
> 100 µM
COc1cc2cc(Oc3ccc(NC(=O)c4cccc5c4OCCO5)cc3)c(C)nc2cc1OC
> 100 µM

Exercise: I have this compound here, c1ccc([P+](c2ccccc2)(c2ccccc2)c2ccc([P+](c3ccccc3)(c3ccccc3)c3ccccc3)cc2)cc1 , and I need its recorded TGI.
Key: > 100 µM

Exercise: # lookup: TGI of COc1ccc(/C=C2\CCC(CNc3ccc(Br)cc3)C2=O)cc1 (stereo not drawn)
Key: > 100 µM

Exercise: # query: TGI of entry COc1cc2cc(C(=O)N3CC(CCl)c4c3cc([N+](C)(C)Cc3ccc([N+](=O)[O-])n3C)c3ccccc43)[nH]c2c(OC)c1OC (stereo not drawn)
Key: > 23.8 µM

====

System: M19-MEL melanoma
Entries annotated with measured GI50

Sample records with GI50:
CC(C)(CO)N=Cc1ccccc1[O-].CC(C)(CO)N=Cc1ccccc1[O-].[Co+2]
> 73800 nM
Cc1ccc(/C=C2\CNC/C(=C\c3ccc(C)cc3)C2=O)cc1
2100 nM
Cc1cc(NC(=O)NC(=O)c2ccccc2N(C)C)ccc1Oc1ncc(Br)cn1
2510 nM

Moving on to another molecule below.
Exercise: What is its GI50 for M19-MEL melanoma? Entry: C=CC1=CC(C)C[C@]1(O)C(=O)OC (some centres undefined)
Key: > 100000 nM

====

Tested on: CAKI-1 renal
procedure-summary: NCI tumour cell line growth inhibition, 48 h; in the data active = GI50 below about 0.43 µM; inactive = the rest
Valid outcomes are listed here; reply with one: active, inactive

Before answering, review these 8 worked examples.
Cc1n(Cc2ccc3ccccc3c2)c(Cl)c(Cl)[n+]1Cc1ccc2ccccc2c1
inactive
c1ccc(CC(NCCNC(Cc2ccccc2)c2ccccc2)c2ccccc2)cc1 (stereo not drawn)
inactive
CC(=O)[CH-]C(=O)c1ccccc1.CC(=O)[CH-]C(=O)c1ccccc1.[CH2-]CCC.[CH2-]CCC.[Sn+4]
active
CC(C)(C)CC(C)(C)c1ccc(OCCOCC[N+](C)(C)Cc2ccccc2)cc1
inactive
CC(C)(CO)N=Cc1ccccc1[O-].CC(C)(CO)N=Cc1ccccc1[O-].[Co+2]
inactive
COC(=O)[C@H](Cc1ccccc1)NC(=O)c1csc([C@@H](C[C@H](C(C)C)N(C)C(=O)[C@@H](NC(=O)[C@H]2CCCN2C)C2CC2)OC(C)=O)n1
inactive
C=CC1=CC(C)C[C@]1(O)C(=O)OC (stereo partly drawn)
inactive
Nc1ncnc2c1c(-c1ccc(Oc3ccccc3)cc1)nn2C[C@@H]1SSC[C@@H]1O
inactive

Exercise: Dear all, I need the recorded test outcome for CN(C)C(=O)SC1=C(c2c(Cl)cccc2Cl)C(=O)c2ccccc21 , thank you.
Key: inactive

Exercise: In this assay, the call recorded for Nc1ccn([C@@H]2C(F)=C(CO)[C@@H](O)[C@H]2O)c(=O)n1 was what?
Key: inactive

Exercise: For COc1ccc2cc(-c3c(-c4ccncc4)nc(-c4ccc(S(C)=O)cc4C)n3C)ccc2c1 (stereo not drawn) , which call appears in the assay record?
Key: inactive

Exercise: Please indicate how the test categorized CC[C@H](C)[C@H](NC(=O)[C@H]1CCCCN1C)C(=O)N(C)[C@H](C[C@@H](OC(C)=O)c1nc(C(=O)N[C@@H](Cc2ccccc2)C[C@H](C)C(=O)OC)cs1)C(C)C .
Key: active

Exercise: What classification did O=C(Nc1ccc(Cl)cc1)Nc1ccccc1CNc1nc(Nc2ccc(OCCN3CCCC3)cc2)ncc1Cl end up with in this test?
Key: inactive

Exercise: So what was the verdict on C=C(CNCCc1ccc(O)cc1)[C@@H]1CC[C@]2(CO)CC[C@]3(C)[C@H](CC[C@@H]4[C@@]5(C)CCC(N)C(C)(C)[C@@H]5CC[C@]43C)[C@@H]12 (stereo partly drawn) in this test?
Key: inactive

Exercise: I would be grateful if you could indicate the recorded call for CC1(C)C2CCC13C(=O)C1OC3(C2)C2C(=O)c3c(O)cccc3C(=O)C12 (stereo not drawn) .
Key: inactive

Exercise: Test call, this compound: CC[C@@]1(O)C(=O)OCc2c1cc1n(c2=O)Cc2cc3c(N)cccc3nc2-1
Key: active

Exercise: State the result this test recorded for CCC(=O)c1cc([N+](=O)[O-])c(Br)s1 .
Key: inactive

Exercise: Outcome logged for C1=C2CNCC3=Cc4ccc5ccccc5c4OC23Oc2c1ccc1ccccc21 in this assay:
Key: inactive

====

Tested on: SK-MEL-2 melanoma
procedure-summary: NCI tumour cell line growth inhibition, 48 h
Reported TGI values follow for various molecules

Example results:
COc1ccccc1/C=C\C(=O)c1ccccc1
14.6 µM
NS(=O)(=O)c1cc(S(N)(=O)=O)c(NC(=O)N(c2ccccc2)c2ccccc2)c(Cl)c1Cl
82.7 µM
OC12CCCCCC1(N1CCOCC1)c1ccccc12 (stereo unspecified)
> 100 µM

Exercise: // query TGI value for entry CN(C)CCCC1(c2ccc(F)cc2)OCc2cc(-c3cncc4ccccc34)ccc21 (stereo unspecified)
Key: 4.74 µM

Exercise: Give its TGI value. Item: CC1=C2NCN(C)N=C2C(C#N)(C#N)C1(C#N)C#N
Key: > 100 µM

Exercise: Quick one: TGI for O=C(O)C1C(C(=O)O)C2(Cl)C(Cl)=C(Cl)C1(Cl)C2(Cl)Cl.[Cd] (stereo unspecified) ?
Key: 26.8 µM

Exercise: Name the reported TGI value associated with the molecule CC1(C)[C@@H]2CC[C@@]1(C)[C@H](O)[C@@H]2SCc1ccccc1
Key: 33.7 µM

Exercise: Name the reported TGI value associated with the molecule COc1cc2nnn3c4ncccc4c(N=O)c3c2cc1OC
Key: > 68.1 µM

Exercise: If you can, please state the reported TGI value of COc1cc(-n2cc(-c3cc(O)c(C/C=C(\C)CCC=C(C)C)c(O)c3)nn2)cc2c1O[C@]1(C)CC[C@@H](O)C(C)(C)[C@H]1C2 .
Key: 11.5 µM

Exercise: Suppose we examine the molecule CC(C)(C)OC(=O)N1CCc2c(n(C/C=C/c3ccccc3)[nH]c2=O)C1 ; what TGI value has been reported?
Key: > 100 µM

Exercise: # lookup: TGI of O=C(O)Cn1ccnc1[N+](=O)[O-]
Key: > 100 µM

Exercise: Look up TGI: COc1ccc2[nH]c3c(=O)[nH]ncc3c2c1
Key: > 100 µM

Exercise: Give its TGI value. Item: Cc1cc2occ(-c3ccc(Cl)cc3)c2c(=O)o1
Key: > 100 µM

Exercise: Given COc1ccc(/C=C(/C(=O)n2cnnn2)c2cc(OC)c(OC)c(OC)c2)cc1 , state its recorded TGI.
Key: > 100 µM
